// provenance: patent US5128338A

- Test system: porcine coronary
- METHOD DESCRIPTION: Porcine coronary relaxation (PGF2α-precontracted coronary segments)
- Design: species or system pig (Yucatan mini pig)
- MEASUREMENT PARAMETERS: Sus scrofa; porcine coronary segments, 37° C., PGF2α 4.10^-6 M; corrected for DMSO; read-out: DE50, effect on coronary tension induced by PGF2α
For each entry below, report its pEC50 value.
FYI, pEC50 means -log10 of a concentration in mol per litre.

input: Looking for the measured pEC50 of CC(C)CNC(=O)Cn1c(=O)n2cc(-c3ccccc3)nc2c2ccccc21 [Example 24] , can you help?
output: 6.00

input: Looking for the measured pEC50 of CCCN(CCC)C(=O)Cn1c(=O)n2cc(-c3ccccc3)nc2c2ccccc21 [Example 28] , can you help?
output: 3.71

input: Looking for the measured pEC50 of CCN(CC)C(=O)Cn1c(=O)n2cc(-c3ccco3)nc2c2ccccc21 [Example 21] , can you help?
output: 6.00

input: Looking for the measured pEC50 of CN1CCN(C(=O)Cn2c(=O)n3cc(-c4ccccc4)nc3c3ccccc32)CC1 [Example 12] , can you help?
output: 4.50

input: Looking for the measured pEC50 of CCN(CC)C(=O)Cn1c(=O)n2cc(-c3cccc(Cl)c3)nc2c2ccccc21 [Example 19] , can you help?
output: 5.63

input: Looking for the measured pEC50 of CCOC(=O)c1cn2c(=O)n(Cc3ccccc3)c3ccccc3c2n1 [Example 10] , can you help?
output: 5.98

input: Looking for the measured pEC50 of CCN(CC)C(=O)CCCn1c(=O)n2cc(-c3ccccc3)nc2c2ccccc21 [Example 26] , can you help?
output: 5.12

input: Looking for the measured pEC50 of CCN(CC)C(=O)Cn1c(=O)n2cc(-c3ccsc3)nc2c2ccccc21 [Example 22] , can you help?
output: 6.14

input: Looking for the measured pEC50 of CCN(CC)C(=O)Cn1c(=O)n2c(CN(C)C)c(-c3ccccc3)nc2c2ccccc21 [Example 5] , can you help?
output: 4.72

input: Looking for the measured pEC50 of O=c1[nH]c2ccccc2c2nc(-c3ccccc3)cn12 [Example 3] , can you help?
output: 5.13

input: Looking for the measured pEC50 of CCN(CC)C(=O)Cn1c(=O)n2cc(-c3ccccc3Cl)nc2c2ccccc21 [Example 30] , can you help?
output: 4.98

input: Looking for the measured pEC50 of CCN(CC)C(=O)Cn1c(=O)n2cc(-c3ccc(OC)c(OC)c3)nc2c2ccccc21 [Example 23] , can you help?
output: 6.74

input: Looking for the measured pEC50 of CC(C)NC(=O)Cn1c(=O)n2cc(-c3ccccc3)nc2c2ccccc21 [Example 14] , can you help?
output: 4.86

input: Looking for the measured pEC50 of CCc1c(-c2ccccc2)nc2c3ccccc3n(CC(=O)N(CC)CC)c(=O)n12 [Example 25] , can you help?
output: 3.43

input: Looking for the measured pEC50 of CCOC(=O)COc1ccc2c(=O)cc(-c3ccccc3)oc2c1 [Efloxate, efloxate, reference compound] , can you help?
output: 5.40

input: Looking for the measured pEC50 of CCN(CC)C(=O)Cn1c(=O)n2cc(C(N)=O)nc2c2ccccc21 [Example 4] , can you help?
output: 5.02

input: Looking for the measured pEC50 of CCN(CC)C(=O)Cn1c(=O)n2cc(-c3ccc(Cl)cc3)nc2c2ccccc21 [Example 15] , can you help?
output: 5.21

====

For each entry below, report its pIC50 value.
- MEASURED ON: peripheral receptors for benzodiazepines ([^3 H]-R05-4864) (Rattus norvegicus, UniProt P16257)
- Construct: on microsomal fractions from rat heart; from tissue; host or cells: rat heart, microsomal fractions
- METHOD DESCRIPTION: Displacement of [3H]-R05-4864, rat heart microsomal fractions;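 note: Read-out is filter-retained bound radioligand, separated from free ligand by vacuum filtration over GF/C and counted by liquid scintillation, with compounds first dissolved in DMSO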
- Assay type: binding
- MEASUREMENT PARAMETERS: corrected for DMSO, read-out: K0.5, peripheral receptors, [^3 H]--RO 54864
FYI, pIC50 means -log10 of a concentration in mol per litre.

input: Looking for the measured pIC50 of CCN(CC)C(=O)Cn1c(=O)n2cc(-c3ccccc3)nc2c2c(Cl)cccc21 , can you help?
output: 5.55

input: Looking for the measured pIC50 of CCN(CC)C(=O)CCCn1c(=O)n2cc(-c3ccccc3)nc2c2ccccc21 , can you help?
output: 5.64

input: Looking for the measured pIC50 of CCOC(=O)CCCn1c(=O)n2cc(-c3ccccc3)nc2c2ccccc21 , can you help?
output: 4.22

====

- MEASURED ON: peripheral receptors for benzodiazepines ([^3 H]-R05-4864) (Rattus norvegicus, UniProt P16257)
ENDPOINT NAME: pIC50
FYI, pIC50 means -log10 of a concentration in mol per litre.

input: Looking for the measured pIC50 of CCN(CC)C(=O)Cn1c(=O)n2c(CN(C)C)c(-c3ccccc3)nc2c2ccccc21 , can you help?
output: 5.35

input: Looking for the measured pIC50 of CCN(CC)C(=O)Cn1c(=O)n2cc(-c3ccc(OC)cc3)nc2c2ccccc21 , can you help?
output: 6.92

input: Looking for the measured pIC50 of CCN(CC)C(=O)Cn1c(=O)n2cc(-c3cccc(Cl)c3)nc2c2ccccc21 , can you help?
output: 7.30

input: Looking for the measured pIC50 of CCN(CC)C(=O)Cn1c(=O)n2cc(-c3ccccc3Cl)nc2c2ccccc21 , can you help?
output: 7.47

input: Looking for the measured pIC50 of O=C(c1ccccc1)c1cn2c(=O)[nH]c3ccccc3c2n1 , can you help?
output: 4.89

input: Looking for the measured pIC50 of CCOC(=O)c1cn2c(=O)n(C)c3ccccc3c2n1 , can you help?
output: 4.52

input: Looking for the measured pIC50 of CCN(CC)C(=O)Cn1c(=O)n2cc(C(=O)c3ccccc3)nc2c2ccccc21 , can you help?
output: 6.70

====

For each entry below, report its pIC50 value.
- MEASURED ON: peripheral receptors for benzodiazepines ([^3 H]-PK 11195) (Rattus norvegicus, UniProt P16257)
FYI, pIC50 means -log10 of a concentration in mol per litre.

input: Looking for the measured pIC50 of CCN(CC)C(=O)Cn1c(=O)n2cc(-c3ccc(OC)cc3)nc2c2ccccc21 [Example 17] , can you help?
output: 6.85

input: Looking for the measured pIC50 of CCc1c(-c2ccccc2)nc2c3ccccc3n(CC(=O)N(CC)CC)c(=O)n12 [Example 25] , can you help?
output: 7.49

input: Looking for the measured pIC50 of CCOC(=O)c1cn2c(=O)n(CC(=O)N(CC)CC)c3ccccc3c2n1 [Example 2] , can you help?
output: 6.26

input: Looking for the measured pIC50 of CCN(CC)C(=O)CCCn1c(=O)n2cc(-c3ccccc3)nc2c2ccccc21 [Example 26] , can you help?
output: 5.00

input: Looking for the measured pIC50 of O=C(c1ccccc1)c1cn2c(=O)[nH]c3ccccc3c2n1 [Example 9] , can you help?
output: 4.55

input: Looking for the measured pIC50 of O=c1[nH]c2ccccc2c2nc(-c3ccccc3)cn12 [Example 3] , can you help?
output: 5.35

====

- MEASURED ON: central receptors for benzodiazepines
- METHOD DESCRIPTION: Displacement of [3H]-RO 151788, rat central nervous system microsomal fractions
- MEASUREMENT PARAMETERS: corrected for DMSO, read-out: K0.5, central receptors, [^3 H]--RO 151788
ENDPOINT NAME: IC50

input: Looking for the measured IC50 of CC(C)CNC(=O)Cn1c(=O)n2cc(-c3ccccc3)nc2c2ccccc21 , can you help?
output: > 100 µM

input: Looking for the measured IC50 of CCCN(CCC)C(=O)Cn1c(=O)n2cc(-c3ccccc3)nc2c2ccccc21 , can you help?
output: 100 µM

input: Looking for the measured IC50 of CCOC(=O)Cn1c(=O)n2cc(-c3ccccc3)nc2c2ccccc21 , can you help?
output: > 100 µM

input: Looking for the measured IC50 of CCN(CC)C(=O)Cn1c(=O)n2cc(-c3ccc(OC)cc3)nc2c2ccccc21 , can you help?
output: 100 µM

input: Looking for the measured IC50 of CCN(CC)C(=O)Cn1c(=O)n2cc(-c3ccc(C)cc3)nc2c2ccccc21 , can you help?
output: 100 µM

input: Looking for the measured IC50 of CC(C)NC(=O)Cn1c(=O)n2cc(-c3ccccc3)nc2c2ccccc21 , can you help?
output: > 100 µM

input: Looking for the measured IC50 of O=C(Cn1c(=O)n2cc(-c3ccccc3)nc2c2ccccc21)N1CCOCC1 , can you help?
output: > 100 µM

input: Looking for the measured IC50 of CCN(CC)C(=O)Cn1c(=O)n2cc(C(N)=O)nc2c2ccccc21 , can you help?
output: > 100 µM

input: Looking for the measured IC50 of CCOC(=O)c1cn2c(=O)[nH]c3ccccc3c2n1 , can you help?
output: 1 µM

input: Looking for the measured IC50 of CCN(CC)C(=O)Cn1c(=O)n2cc(-c3ccc(Cl)cc3)nc2c2ccccc21 , can you help?
output: > 100 µM

input: Looking for the measured IC50 of CCN(CC)C(=O)Cn1c(=O)n2cc(-c3ccc(OC)c(OC)c3)nc2c2ccccc21 , can you help?
output: > 100 µM
